Reported Ratio values follow for various compounds
# assay_explanation: Selectivity ratio is IC50 of Human colon carcinoma cells to that of Monkey normal kidney epithelial cells
# Format: functional, Epithelial cell
No unit in the answer, only the number.

Q: GET /values?readout=Ratio&item= "CCN1/C(=C/C=c2/c(=O)n(CC)/c(=C/c3sc4c5ccccc5ccc4[n+]3CC)n2CC)Sc2ccc3ccccc3c21.[I-]"
Result: 8

Q: Next entry: "CCn1c(=O)/c(=C2\Sc3ccccc3N2C)n(CC)/c1=C\c1sc2ccccc2[n+]1CC.[I-]"
Result: 20

Q: Param item: "CCN1C(=O)CS/C1=C\c1sc2ccccc2[n+]1CC.[Br-]"
Result: 30

Okay, next one:
Q: Name the reported Ratio value associated with the compound "CCN1/C(=C/C=C(Cl)/C=C/c2sc3ccc4ccccc4c3[n+]2CC)Sc2ccc3ccccc3c21.Cc1ccc(S(=O)(=O)[O-])cc1"
Result: 2

====

# Tested on: Bladder carcinoma cell
# assay_explanation: Inhibitory concentration of compound against growth of human bladder carcinoma cells
# Assay type: functional, cell-based
# conditions: bladder carcinoma cell
quantity_measured: pIC50
Entry type: numeric. Quantity: pIC50, the -log10 of concentration in molar units.

Q: Query (compound): "CCn1c(=O)/c(=C2\Sc3ccccc3N2C)s/c1=C\c1sc2ccccc2[n+]1CC.[I-]" ; field requested: pIC50
Result: 7.15

====

Consider the following compounds and their measured Ratio readings.
# assay_explanation: Selectivity ratio is IC50 of Human colon carcinoma cells to that of Monkey normal kidney epithelial cells
# Assay type: functional, Epithelial cell
Just the number, please.

Q: # query: Ratio of entry "CC[n+]1c(/C=c2\s/c(=C3/Sc4ccccc4N3C)c(=O)n2-c2ccccc2)sc2ccccc21.Cc1ccc(S(=O)(=O)[O-])cc1"
Result: 220

Next:
Q: Reported Ratio for "CCn1c(=O)c(=C2CCCCC2)s/c1=C\c1sc2ccccc2[n+]1CC.Cc1ccc(S(=O)(=O)[O-])cc1" : what is it?
Result: 9

Q: // next record "CCn1c(=O)/c(=C2\Sc3ccccc3N2C)s/c1=C\c1sc2ccccc2[n+]1CC.[I-]"
Result: 346

====

# assay_explanation: Selectivity ratio is IC50 of Human colon carcinoma cells to that of Monkey normal kidney epithelial cells
# Format: functional, Epithelial cell
Ratio reference

Illustrative cases are given below, each with its answer.
Q: For "CC[n+]1c(/C=c2\s/c(=C\C=C\Nc3ccccc3)c(=O)n2-c2ccccc2)sc2ccccc21.[I-]" , what is its reported Ratio?
Result: 12

Q: Try "CCN1/C(=C/C=C/c2sc3ccccc3[n+]2CC)Sc2ccccc21.[I-]" next.
Result: 20

Q: Now consider "CCN1/C(=C/C=c2\s/c(=C\c3sc4ccccc4[n+]3CC)n(C)c2=O)Oc2ccccc21.[I-]" and answer again.
Result: 57

Q: Same again, this time with "CCN1/C(=C/C=c2/c(=O)s/c(=C/c3sc4ccccc4[n+]3CC)n2C)Oc2ccccc21.[I-]"
Result: 49

Next:
Q: Which measured Ratio value corresponds to "CC[n+]1c(/C=C2\SCC(=O)N2c2ccccc2)sc2ccccc21.[Br-]" ?
Result: 20

Q: Then "CCN1/C(=C/C=c2\s/c(=C\c3sc4ccccc4[n+]3CC)n(-c3ccccc3)c2=O)Sc2ccccc21.[I-]" ?
Result: 50

Q: Another compound to check: "CCN1/C(=C/C=c2\s/c(=C\c3sc4ccc5ccccc5c4[n+]3CC)n(CC)c2=O)Sc2ccc3ccccc3c21.Cc1ccc(S(=O)(=O)[O-])cc1"
Result: 217

Q: For "CC[n+]1c(/C=c2\s/c(=C\Nc3ccccc3)c(=O)n2-c2ccccc2)sc2ccccc21.[Br-]" then?
Result: 1
